# Tested on: IL-6 (THP-1 cells)
# Test: Inhibition of IL-6 in LPS-stimulated THP-1 monocytes (HTRF)
# Type: cell-based
# Condition: Homo sapiens, LPS 500 ng/mL, IL-6 by HTRF
// values below are reported EC50
Endpoint: EC50

1. CCC(=O)Nc1cncc(-c2ccc3[nH]nc(-c4nc5c(N6CCCCC6)ccnc5[nH]4)c3n2)c1 [Compound 169] : > 10 µM
2. Fc1cccc(-c2ccnc3[nH]c(-c4n[nH]c5ccc(-c6cnccn6)nc45)nc23)c1 [Compound 520] : > 10 µM
3. Fc1cccc(-c2ccnc3[nH]c(-c4n[nH]c5ccc(-c6cncc(OC7CCNCC7)c6)nc45)nc23)c1 [Compound 512] : > 10 µM
4. O=C(Cc1ccccc1)Nc1cncc(-c2ccc3[nH]nc(-c4nc5cccnc5[nH]4)c3n2)c1 [Compound 262] : > 10 µM
5. CCCC(=O)Nc1cncc(-c2ccc3[nH]nc(-c4nc5c(-c6ccncc6)ccnc5[nH]4)c3n2)c1 [Compound 129] : > 10 µM
6. Cn1cc(-c2ccc3[nH]nc(-c4nc5c(-c6cccc(F)c6)ccnc5[nH]4)c3n2)cn1 [Compound 508] : > 10 µM
7. Cc1ccc(-c2ccnc3[nH]c(-c4n[nH]c5ccc(-c6cncc(NC(=O)C7CCCC7)c6)nc45)nc23)s1 [Compound 414] : 1.85 µM
8. CN1CCN(c2ccnc3[nH]c(-c4n[nH]c5ccc(-c6cncc(N)c6)nc45)nc23)CC1 [Compound 227] : > 10 µM
9. c1ccc(CNCc2cncc(-c3ccc4[nH]nc(-c5nc6c(-c7ccsc7)ccnc6[nH]5)c4n3)c2)cc1 [Compound 304] : 4.26 µM
10. NC1CN(c2cncc(-c3ccc4[nH]nc(-c5nc6c(-c7cccc(F)c7)ccnc6[nH]5)c4n3)n2)C1 [Compound 510] : 0.023 µM
11. FC1(F)CCN(Cc2cncc(-c3ccc4[nH]nc(-c5nc6c(-c7ccsc7)ccnc6[nH]5)c4n3)c2)C1 [Compound 306] : 1.33 µM
12. CCC(=O)Nc1cncc(-c2ccc3[nH]nc(-c4nc5c(-c6cccc(F)c6)ccnc5[nH]4)c3n2)c1 [Compound 1] : > 10 µM
13. Cc1cn(-c2ccnc3[nH]c(-c4n[nH]c5ccc(-c6cncc(NC(=O)C(C)(C)C)c6)nc45)nc23)cn1 [Compound 204] : > 10 µM
14. c1cnc2[nH]c(-c3n[nH]c4ccc(-c5cn[nH]c5)nc34)nc2c1 [Compound 651] : > 10 µM
15. COc1cncc(-c2ccc3[nH]nc(-c4nc5c(N6CCCCC6)ccnc5[nH]4)c3n2)c1 [Compound 612] : > 10 µM

* * *

// values below are reported Emax
# System: primary human mesenchymal stem cells (hMSCs)
# Test: Induction of chondrogenesis in primary human mesenchymal stem cells (nodule imaging, Rhodamine B/Nile Red)
# Assay type: cell-based
# Condition: hMSC chondrogenesis, TGF-β3 as positive control, read-out: Max. Activity as % TGF-β3 activity
Endpoint: Emax (%)

1) CCC(=O)Nc1cncc(-c2ccc3[nH]nc(-c4nc5c(-c6ccsc6)ccnc5[nH]4)c3n2)c1 : 38
2) CCCCC(=O)Nc1cncc(-c2ccc3[nH]nc(-c4nc5c(-c6ccoc6)ccnc5[nH]4)c3n2)c1 : 83
3) c1cncc(-c2ccc3[nH]nc(-c4nc5c(-c6cccnc6)ccnc5[nH]4)c3n2)c1 : 95
4) Fc1ccc(-c2ccnc3[nH]c(-c4n[nH]c5ccc(-c6cncc(CN7CCCC7)c6)nc45)nc23)cc1 : 17
5) O=C(Nc1cncc(-c2ccc3[nH]nc(-c4nc5c(-c6ccc(F)cc6)ccnc5[nH]4)c3n2)c1)C1CCC1 : 69
6) CN(C)Cc1cncc(-c2ccc3[nH]nc(-c4nc5c(-c6cccc(F)c6)ccnc5[nH]4)c3n2)c1 : 29
7) CC(C)Nc1cncc(-c2ccc3[nH]nc(-c4nc5c(-c6ccoc6)ccnc5[nH]4)c3n2)c1 : 64
8) CC(C)C(=O)Nc1cncc(-c2ccc3[nH]nc(-c4nc5c(-c6cccnc6)ccnc5[nH]4)c3n2)c1 : 26
9) CCC(=O)Nc1cncc(-c2ccc3[nH]nc(-c4nc5c(N6CCCCC6)ccnc5[nH]4)c3n2)c1 : 38
10) Cc1cn(-c2ccnc3[nH]c(-c4n[nH]c5ccc(-c6cncc(NC(=O)C7CCC7)c6)nc45)nc23)cn1 : 69
11) Cc1cn(-c2ccnc3[nH]c(-c4n[nH]c5ccc(-c6cncc(NC(=O)C(C)(C)C)c6)nc45)nc23)cn1 : 70
12) CN(C)c1cncc(-c2ccc3[nH]nc(-c4nc5c(-c6cccc(F)c6)ccnc5[nH]4)c3n2)c1 : 84
13) CCCC(=O)Nc1cncc(-c2ccc3[nH]nc(-c4nc5c(-c6cc(F)cc(CNS(C)(=O)=O)c6)ccnc5[nH]4)c3n2)c1 : 43
14) Cn1cc(-c2ccc3[nH]nc(-c4nc5c(-c6cccc(F)c6)ccnc5[nH]4)c3n2)cn1 : 43
15) Fc1cccc(-c2ccnc3[nH]c(-c4n[nH]c5ccc(-c6ccncc6)nc45)nc23)c1 : 42

* * *

# Tested on: IL-6 (THP-1 cells)
# Test: Inhibition of IL-6 in LPS-stimulated THP-1 monocytes (HTRF)
# Type: cell-based
# Condition: Homo sapiens, LPS 500 ng/mL, IL-6 by HTRF
// values below are reported EC50
Endpoint: EC50

1. Cc1ccncc1-c1ccc2[nH]nc(-c3nc4c(-c5cc(F)cc(CNS(C)(=O)=O)c5)ccnc4[nH]3)c2n1 [Compound 481] : 1.03 µM
2. Oc1cncc(-c2ccc3[nH]nc(-c4nc5c(-c6cccnc6)ccnc5[nH]4)c3n2)c1 [Compound 565] : 9.48 µM
3. Cc1cn(-c2ccnc3[nH]c(-c4n[nH]c5ccc(-c6cncc(NC(=O)C7CCC7)c6)nc45)nc23)cn1 [Compound 217] : > 10 µM
4. Cn1cc(-c2ccc3[nH]nc(-c4nc5c(N6CCCCC6)ccnc5[nH]4)c3n2)c(CO)n1 [Compound 1134] : > 10 µM
5. c1cc(-c2ccc3c(c2)OCO3)c2nc(-c3n[nH]c4ccc(C5CCNCC5)nc34)[nH]c2n1 [Compound 1108] : > 10 µM
6. Cc1ncc(-c2ccc3[nH]nc(-c4nc5c(-c6cccc(F)c6)ccnc5[nH]4)c3n2)n1C [Compound 509] : > 10 µM
7. CCNCc1cncc(-c2ccc3[nH]nc(-c4nc5c(-c6cc(F)cc(NCCN(C)C)c6)ccnc5[nH]4)c3n2)c1 [Compound 454] : > 10 µM
8. Fc1ccc(-c2ccnc3[nH]c(-c4n[nH]c5ccc(-c6cncnc6)nc45)nc23)cc1 [Compound 55] : > 10 µM
9. CC(C)CC(=O)Nc1cncc(-c2ccc3[nH]nc(-c4nc5c(-c6ccc(Cl)s6)ccnc5[nH]4)c3n2)c1 [Compound 1037] : 5.05 µM
10. Cc1ccc(-c2ccnc3[nH]c(-c4n[nH]c5ccc(-c6cncc(N)c6)nc45)nc23)s1 [Compound 395] : 0.25 µM
11. COc1cccc(-c2ccnc3[nH]c(-c4n[nH]c5ccc(-c6cncc(NC(=O)CC(C)(C)C)c6)nc45)nc23)c1 [Compound 1006] : > 10 µM
12. CCCC(=O)Nc1cncc(-c2ccc3[nH]nc(-c4nc5c(-c6cc(F)cc(CNS(C)(=O)=O)c6)ccnc5[nH]4)c3n2)c1 [Compound 493] : > 10 µM
13. Fc1ccccc1-c1ccnc2[nH]c(-c3n[nH]c4ccc(-c5cncc(CNCC6CCCC6)c5)nc34)nc12 [Compound 81] : 5.75 µM
14. CN1CCN(c2ccnc3[nH]c(-c4n[nH]c5ccc(-c6cncnc6)nc45)nc23)CC1 [Compound 251] : > 10 µM
15. Fc1cccc(-c2ccnc3[nH]c(-c4n[nH]c5ccc(-c6cn[nH]c6)nc45)nc23)c1 [Compound 507] : > 10 µM
16. Cc1ccncc1-c1ccc2[nH]nc(-c3nc4c(-c5ccsc5)ccnc4[nH]3)c2n1 [Compound 285] : 9.88 µM
17. CCCCC(=O)Nc1cncc(-c2ccc3[nH]nc(-c4nc5c(-c6ccccn6)ccnc5[nH]4)c3n2)c1 [Compound 159] : > 10 µM
18. Nc1cncc(-c2ccc3[nH]nc(-c4nc5c(-c6ccccc6F)ccnc5[nH]4)c3n2)c1 [Compound 59] : 2.12 µM
19. CN(C)CCNc1cc(F)cc(-c2ccnc3[nH]c(-c4n[nH]c5ccc(-c6ccccn6)nc45)nc23)c1 [Compound 476] : > 10 µM
20. CC(C)C(=O)Nc1cncc(-c2ccc3[nH]nc(-c4nc5c(-c6ccccc6F)ccnc5[nH]4)c3n2)c1 [Compound 65] : 0.151 µM
21. CN(C)CC(=O)Nc1cncc(-c2ccc3[nH]nc(-c4nc5c(-c6cccc(F)c6)ccnc5[nH]4)c3n2)c1 [Compound 969] : > 10 µM

* * *

# System: primary human mesenchymal stem cells (hMSCs)
# Test: Induction of chondrogenesis in primary human mesenchymal stem cells (nodule imaging, Rhodamine B/Nile Red)
# Format: cell-based
# Condition: hMSC chondrogenesis, TGF-β3 as positive control, read-out: Max. Activity as % TGF-β3 activity
Under this convention, MET denotes Emax strictly below 50% and NOT MET denotes Emax at or above 50%.

1) CN(C)CCOc1cncc(-c2ccc3[nH]nc(-c4nc5c(-c6cccc(F)c6)ccnc5[nH]4)c3n2)c1 : MET
2) Fc1ccc(-c2ccnc3[nH]c(-c4n[nH]c5ccc(-c6cncnc6)nc45)nc23)cc1 : NOT MET
3) CCC(=O)Nc1cncc(-c2ccc3[nH]nc(-c4nc5c(-c6cccc(F)c6)ccnc5[nH]4)c3n2)c1 : MET
4) CCNCc1cncc(-c2ccc3[nH]nc(-c4nc5c(-c6cc(F)cc(NCCN(C)C)c6)ccnc5[nH]4)c3n2)c1 : NOT MET
5) CN(C)Cc1cncc(-c2ccc3[nH]nc(-c4nc5c(N6CCCCC6)ccnc5[nH]4)c3n2)c1 : MET
6) NC1CN(c2cncc(-c3ccc4[nH]nc(-c5nc6c(-c7cccc(F)c7)ccnc6[nH]5)c4n3)n2)C1 : MET
